Tested on: COR-L 105
measurement-protocol: relative viability (nuclei count vs DMSO), 5 days (fraction); higher = more cells survive
setup-conditions: first compound 0.01 µM
test-readout: relative viability
One number for each entry.

{"columns": ["compound", "tested-system", "relative viability"],
 "data": [
  ["CC(C)Oc1cc(Nc2nc(N[C@@H](C)c3ccc(F)cn3)ncc2Cl)n[nH]1 [AZ23] + CS(=O)(=O)N1CCN(Cc2cc3nc(-c4cccc5[nH]ncc45)nc(N4CCOCC4)c3s2)CC1 [Pictilisib] (partner 1 µM)", "COR-L 105", 0.407],
  ["CC(C)Oc1cc(Nc2nc(N[C@@H](C)c3ccc(F)cn3)ncc2Cl)n[nH]1 [AZ23] + Nc1ncn([C@H]2C[C@H](O)[C@@H](CO)O2)c(=O)n1 [Decitabine] (partner 2 µM)", "COR-L 105", 0.547],
  ["CC(C)Oc1cc(Nc2nc(N[C@@H](C)c3ccc(F)cn3)ncc2Cl)n[nH]1 [AZ23] + Nc1nc2[nH]cc(CCc3ccc(C(=O)N[C@@H](CCC(=O)O)C(=O)O)cc3)c2c(=O)[nH]1 [Pemetrexed] (partner 0.2 µM)", "COR-L 105", 0.902],
  ["CC(C)Oc1cc(Nc2nc(N[C@@H](C)c3ccc(F)cn3)ncc2Cl)n[nH]1 [AZ23] + CC(=O)Nc1cccc(-n2c(=O)n(C3CC3)c(=O)c3c(Nc4ccc(I)cc4F)n(C)c(=O)c(C)c32)c1 [Trametinib] (partner 0.02 µM)", "COR-L 105", 0.432]
]}

# next compound below
Asked: Suppose we examine the compound CC(C)Oc1cc(Nc2nc(N[C@@H](C)c3ccc(F)cn3)ncc2Cl)n[nH]1 [AZ23] + C[C@]1(O)C[C@@H](c2nc(-c3ccc4ccc(-c5ccccc5)nc4c3)c3c(N)nccn32)C1 [Linsitinib] (partner 1 µM) ; what relative viability value has been reported?
Given back: 0.664

###

Tested on: COR-L 105
measurement-protocol: relative viability (nuclei count vs DMSO), 5 days (fraction); higher = more cells survive
setup-conditions: first compound 4 µM
test-readout: relative viability
Numbers only.

// batch mode: one relative viability value per listed entry
1. COc1cc(N2CCC(C(N)=O)CC2)ccc1Nc1nc(N)c(Cl)c(Nc2ccccc2S(=O)(=O)C(C)C)n1 [HG-5-88-01] + CS(=O)(=O)CCNCc1ccc(-c2ccc3ncnc(Nc4ccc(OCc5cccc(F)c5)c(Cl)c4)c3c2)o1 [Lapatinib] (partner 2 µM)
2. C[C@@H]1CN(CC(=O)Nc2ccc3c(c2)Cc2cccc(-c4cc(=O)cc(N5CCOCC5)o4)c2S3)C[C@H](C)O1 + COc1cccc2cc(-c3nc([C@H]4CC[C@H](C(=O)O)CC4)n4ncnc(N)c34)[nH]c12 [OSI-027] (partner 0.5 µM)
3. C[C@@H]1CN(CC(=O)Nc2ccc3c(c2)Cc2cccc(-c4cc(=O)cc(N5CCOCC5)o4)c2S3)C[C@H](C)O1 + Nc1nc2[nH]cc(CCc3ccc(C(=O)N[C@@H](CCC(=O)O)C(=O)O)cc3)c2c(=O)[nH]1 [Pemetrexed] (partner 0.2 µM)
4. COc1cc(N2CCC(C(N)=O)CC2)ccc1Nc1nc(N)c(Cl)c(Nc2ccccc2S(=O)(=O)C(C)C)n1 [HG-5-88-01] + COc1cccc2cc(-c3nc([C@H]4CC[C@H](C(=O)O)CC4)n4ncnc(N)c34)[nH]c12 [OSI-027] (partner 0.5 µM)

Given back:
0.334
0.661
1.14
0.316

###

Field: relative viability. Provide a value for each of the molecules that follow.
System: LCLC-103H
measurement-protocol: relative viability (nuclei count vs DMSO), 5 days (fraction); higher = more cells survive
setup-conditions: first compound 0.1265 µM
One number for each entry.

{"columns": ["molecule", "test-readout", "reported"],
 "data": [
  ["Clc1ccc(Nc2nnc(Cc3ccncc3)c3ccccc23)cc1 [Vatalanib] + C[C@]1(O)C[C@@H](c2nc(-c3ccc4ccc(-c5ccccc5)nc4c3)c3c(N)nccn32)C1 [Linsitinib] (partner 1 µM)", "relative viability", 1.07]
]}

Next molecule, please.
Asked: # query: relative viability of entry C[C@@H]1CN(CC(=O)Nc2ccc3c(c2)Cc2cccc(-c4cc(=O)cc(N5CCOCC5)o4)c2S3)C[C@H](C)O1 + CC(=O)Nc1cccc(-n2c(=O)n(C3CC3)c(=O)c3c(Nc4ccc(I)cc4F)n(C)c(=O)c(C)c32)c1 [Trametinib] (partner 0.02 µM)
Given back: 0.629

###

Test system: LCLC-97TM1
measurement-protocol: relative viability (nuclei count vs DMSO), 5 days (fraction); higher = more cells survive
setup-conditions: first compound 0.04 µM
Please respond with reported relative viability for every item in the list.
Numbers only.

{"columns": ["compound", "relative viability"],
 "data": [
  ["COc1cc(N2CCC(C(N)=O)CC2)ccc1Nc1nc(N)c(Cl)c(Nc2ccccc2S(=O)(=O)C(C)C)n1 [HG-5-88-01] + C[C@]1(O)C[C@@H](c2nc(-c3ccc4ccc(-c5ccccc5)nc4c3)c3c(N)nccn32)C1 [Linsitinib] (partner 1 µM)", 0.183],
  ["Clc1ccc(Nc2nnc(Cc3ccncc3)c3ccccc23)cc1 [Vatalanib] + N=C(N)NC(=N)NCCc1ccccc1 [Phenformin] (partner 250 µM)", 0.417],
  ["COc1cc(N2CCC(C(N)=O)CC2)ccc1Nc1nc(N)c(Cl)c(Nc2ccccc2S(=O)(=O)C(C)C)n1 [HG-5-88-01] + CS(=O)(=O)CCNCc1ccc(-c2ccc3ncnc(Nc4ccc(OCc5cccc(F)c5)c(Cl)c4)c3c2)o1 [Lapatinib] (partner 2 µM)", 0.999],
  ["Clc1ccc(Nc2nnc(Cc3ccncc3)c3ccccc23)cc1 [Vatalanib] + C[C@@H](Oc1cc(-c2cnn(C3CCNCC3)c2)cnc1N)c1c(Cl)ccc(F)c1Cl [Crizotinib] (partner 1 µM)", 0.308],
  ["Clc1ccc(Nc2nnc(Cc3ccncc3)c3ccccc23)cc1 [Vatalanib] + O=C(c1cc(Cc2n[nH]c(=O)c3ccccc23)ccc1F)N1CCN(C(=O)C2CC2)CC1 [Olaparib] (partner 8 µM)", 0.357]
]}

Quick request: relative viability for each listed item, please.
1. Clc1ccc(Nc2nnc(Cc3ccncc3)c3ccccc23)cc1 [Vatalanib] + CC(C)C[C@H](NC(=O)[C@H](Cc1ccccc1)NC(=O)c1cnccn1)B(O)O [Bortezomib] (partner 0.002 µM)
2. COc1cc(N2CCC(C(N)=O)CC2)ccc1Nc1nc(N)c(Cl)c(Nc2ccccc2S(=O)(=O)C(C)C)n1 [HG-5-88-01] + O=C(c1cc(Cc2n[nH]c(=O)c3ccccc23)ccc1F)N1CCN(C(=O)C2CC2)CC1 [Olaparib] (partner 8 µM)

Given back:
0.529
0.434

###

System: SW 1573
measurement-protocol: relative viability (nuclei count vs DMSO), 5 days (fraction); higher = more cells survive
setup-conditions: first compound 4 µM
So I've got a bunch of compounds here, and I need their relative viability values.
Answers are plain numbers.

Use the examples below as a reference point.
{"columns": ["compound", "reported"],
 "data": [
  ["Clc1ccc(Nc2nnc(Cc3ccncc3)c3ccccc23)cc1 [Vatalanib] + COc1cccc2cc(-c3nc([C@H]4CC[C@H](C(=O)O)CC4)n4ncnc(N)c34)[nH]c12 [OSI-027] (partner 0.5 µM)", 0.59],
  ["COc1cc(N2CCC(C(N)=O)CC2)ccc1Nc1nc(N)c(Cl)c(Nc2ccccc2S(=O)(=O)C(C)C)n1 [HG-5-88-01] + Cc1nc(NC(=O)N2CCC[C@H]2C(N)=O)sc1-c1ccnc(C(C)(C)C(F)(F)F)c1 [Alpelisib] (partner 2 µM)", 0.605],
  ["Clc1ccc(Nc2nnc(Cc3ccncc3)c3ccccc23)cc1 [Vatalanib] + Cc1cc(Nc2cc(N3CCN(C)CC3)nc(Sc3ccc(NC(=O)C4CC4)cc3)n2)n[nH]1 [Tozasertib] (partner 0.1 µM)", 0.153]
]}

For each of the items listed, what is its relative viability?
1. COc1cc(N2CCC(C(N)=O)CC2)ccc1Nc1nc(N)c(Cl)c(Nc2ccccc2S(=O)(=O)C(C)C)n1 [HG-5-88-01] + CS(=O)(=O)N1CCN(Cc2cc3nc(-c4cccc5[nH]ncc45)nc(N4CCOCC4)c3s2)CC1 [Pictilisib] (partner 1 µM)
2. COc1cc(N2CCC(C(N)=O)CC2)ccc1Nc1nc(N)c(Cl)c(Nc2ccccc2S(=O)(=O)C(C)C)n1 [HG-5-88-01] + CC(=O)Nc1cccc(-n2c(=O)n(C3CC3)c(=O)c3c(Nc4ccc(I)cc4F)n(C)c(=O)c(C)c32)c1 [Trametinib] (partner 0.02 µM)

Given back:
1: 0.489; 2: 0.52

Parameters: items (list). Returns: relative viability for each item.
1. C[C@@H]1CN(CC(=O)Nc2ccc3c(c2)Cc2cccc(-c4cc(=O)cc(N5CCOCC5)o4)c2S3)C[C@H](C)O1 + CCNC(=O)c1noc(-c2cc(C(C)C)c(O)cc2O)c1-c1ccc(CN2CCOCC2)cc1 [Luminespib] (partner 0.01 µM)
2. COc1cc(N2CCC(C(N)=O)CC2)ccc1Nc1nc(N)c(Cl)c(Nc2ccccc2S(=O)(=O)C(C)C)n1 [HG-5-88-01] + O=C(CCCCCCC(=O)Nc1ccccc1)NO [Vorinostat] (partner 1 µM)
3. COc1cc(N2CCC(C(N)=O)CC2)ccc1Nc1nc(N)c(Cl)c(Nc2ccccc2S(=O)(=O)C(C)C)n1 [HG-5-88-01] + C[C@]1(O)C[C@@H](c2nc(-c3ccc4ccc(-c5ccccc5)nc4c3)c3c(N)nccn32)C1 [Linsitinib] (partner 1 µM)
4. COc1cc(N2CCC(C(N)=O)CC2)ccc1Nc1nc(N)c(Cl)c(Nc2ccccc2S(=O)(=O)C(C)C)n1 [HG-5-88-01] + N=C(N)NC(=N)NCCc1ccccc1 [Phenformin] (partner 250 µM)

Given back:
1. 0.366
2. 0.851
3. 0.83
4. 0.344

Record relative viability per entry; entries follow.
1. COc1cc(N2CCC(C(N)=O)CC2)ccc1Nc1nc(N)c(Cl)c(Nc2ccccc2S(=O)(=O)C(C)C)n1 [HG-5-88-01] + CC(=O)c1c(C)c2cnc(Nc3ccc(N4CCNCC4)cn3)nc2n(C2CCCC2)c1=O [Palbociclib] (partner 0.5 µM)
2. COc1cc(N2CCC(C(N)=O)CC2)ccc1Nc1nc(N)c(Cl)c(Nc2ccccc2S(=O)(=O)C(C)C)n1 [HG-5-88-01] + C[C@@H](Oc1cc(-c2cnn(C3CCNCC3)c2)cnc1N)c1c(Cl)ccc(F)c1Cl [Crizotinib] (partner 1 µM)
3. C[C@@H]1CN(CC(=O)Nc2ccc3c(c2)Cc2cccc(-c4cc(=O)cc(N5CCOCC5)o4)c2S3)C[C@H](C)O1 + CS(=O)(=O)CCNCc1ccc(-c2ccc3ncnc(Nc4ccc(OCc5cccc(F)c5)c(Cl)c4)c3c2)o1 [Lapatinib] (partner 2 µM)
4. COc1cc(N2CCC(C(N)=O)CC2)ccc1Nc1nc(N)c(Cl)c(Nc2ccccc2S(=O)(=O)C(C)C)n1 [HG-5-88-01] + CCNC(=O)c1noc(-c2cc(C(C)C)c(O)cc2O)c1-c1ccc(CN2CCOCC2)cc1 [Luminespib] (partner 0.01 µM)

Given back:
[0.277, 0.475, 1.08, 0.242]
